Biological target: UniProt P08631
Sequence (P08631 whole entry): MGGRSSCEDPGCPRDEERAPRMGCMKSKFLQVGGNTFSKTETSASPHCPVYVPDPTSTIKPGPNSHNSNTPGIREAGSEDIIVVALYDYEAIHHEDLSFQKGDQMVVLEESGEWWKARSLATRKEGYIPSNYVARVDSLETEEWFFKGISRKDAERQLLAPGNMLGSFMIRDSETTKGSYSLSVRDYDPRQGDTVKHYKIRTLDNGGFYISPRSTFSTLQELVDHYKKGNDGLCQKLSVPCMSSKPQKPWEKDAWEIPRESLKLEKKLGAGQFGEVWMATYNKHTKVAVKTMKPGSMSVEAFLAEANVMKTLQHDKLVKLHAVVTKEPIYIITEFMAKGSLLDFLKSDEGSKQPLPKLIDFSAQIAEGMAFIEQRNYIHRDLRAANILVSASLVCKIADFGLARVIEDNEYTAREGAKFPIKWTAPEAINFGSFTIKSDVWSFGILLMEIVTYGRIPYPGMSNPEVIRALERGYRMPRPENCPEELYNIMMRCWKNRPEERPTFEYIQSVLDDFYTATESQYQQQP
Activity calls are given as the source filed them.
Hello, when you answer, please use one of the following outcomes: yes for active, no for inactive

COc1cc(CCc2cc(NC(=O)c3ccc(N4C[C@@H](C)N[C@@H](C)C4)cc3)n[nH]2)cc(OC)c1: no
COCCNCc1ccc(-c2cc3nccc(Oc4ccc(NC(=S)NC(=O)Cc5ccc(F)cc5)cc4F)c3s2)nc1: yes
CNC(=O)c1ccc(C)c(-n2c(C)cc(OCc3ccc(F)cc3F)c(Br)c2=O)c1: no
COC(=O)N[C@@H](C)CNc1nccc(-c2cn(C(C)C)nc2-c2cc(Cl)cc(NS(C)(=O)=O)c2F)n1: no
O=C(Nc1ccc(-c2ccnc(Nc3ccc(N4CCOCC4)cc3)n2)cc1)C1CCCN1 (centres undefined): no

Tell me the assay call for Cc1cc(Nc2cc(N3CCN(C)CC3)nc(/C=C/c3ccccc3)n2)n[nH]1 please.
no

Hello, I am checking results. What call was entered for COc1cc(N2CCC(N3CCN(C)CC3)CC2)ccc1Nc1ncnc(Nc2ccccc2S(=O)(=O)C(C)C)n1 ?
yes

Identify the outcome logged in this assay for the compound shown: CNC(=O)c1cc(Oc2ccc(NC(=O)Nc3ccc(Cl)c(C(F)(F)F)c3)c(F)c2)ccn1
no

Please let me know the test result on file for C[C@@H](c1ccc2nccn2c1)n1nnc2ncc(-c3cnn(C)c3)nc21 .
no
